- Test system: SR leukemia
- protocol: NCI tumour cell line growth inhibition, 48 h
measured-parameter: TGI (µM)
Form entry: value (µM) — number only.

CN(N)/N=N/c1nc[nH]c1C(N)=O    2.23
CCCCCCCC(=O)N/N=C/c1ccc(Sc2nccn2C)c([N+](=O)[O-])c1    55.6
CN=C(N)N/N=C(\C)c1ccc2oc3ccc(/C(C)=N/NC(N)=NC)cc3c2c1    4.75

Would you kindly look at the next entry?
*Q* # lookup: TGI of "CC(=O)Oc1ccccc1C(=O)C1c2cccc(O)c2C(=O)c2c(O)cccc21"
*A* 0.967

----------
- Tested on: HOP-92 NSCLC
- protocol: NCI tumour cell line growth inhibition, 48 h; in the data active = GI50 below about 0.43 µM; inactive = the rest
Would you mind answering with one of these outcomes? active, inactive

Cn1cc(-c2ccc3c(c2)CCN3C(=O)Cc2cccc(C(F)(F)F)c2)c2c(N)ncnc21    inactive

*Q* I'd appreciate the recorded outcome for "CCOC(=O)c1c(C)n(Cc2ccc(Cl)cc2Cl)c2c1cc1oc(=O)c(=O)n3c(Cc4ccccc4)nc2c13" from this test.
*A* inactive

*Q* Which result was noted for this molecule in the test: O=c1[nH]cnc2c(C3OC(CO)C(O)C3O)scc12 (configuration not stated)
*A* inactive

*Q* // param item: "O=c1oc2ccc(Cl)cc2c(=O)n1-c1ccc(I)cc1F" ; yields the recorded call
*A* active

*Q* For "Cc1c(C)c2ccc(OC/C=C3\CCC(=O)O3)cc2oc1=O" , which call appears in the assay record?
*A* inactive

*Q* Test call for this molecule, please: O=C(NN1C(=O)CSC1c1ccc(Cl)cc1)c1[nH]c2ccc(F)cc2c1-c1ccccc1 (configuration not stated)
*A* inactive

*Q* Look up the recorded call for "Nc1nc(OCc2ccccc2)nc2[nH]ncc12" in this test.
*A* inactive

*Q* State the result this test recorded for N#CC1C(N)=NNC12Nc1ccccc1N2 (configuration not stated) .
*A* inactive

*Q* What did the test return for C=C(C)CCC(C)N1CCC(N2CCC(C(=O)NCCc3ccccc3)CC2)CC1 (configuration not stated) ?
*A* inactive

----------
- System: SR leukemia
- protocol: NCI tumour cell line growth inhibition, 48 h
compounds and their reported TGI
All answers are understood in µM, so give the number only.

*Q* Please report the recorded TGI for "COc1cnc2c(c1)C(=O)c1c-2n(CCCN2CCCC2)c(=O)c2cc(Cl)ccc12" .
*A* 7.9

*Q* So what does the record say about TGI for "Clc1ccc(CN2COc3c(cc(Cl)c4cccnc34)C2)cc1" ?
*A* 6.88

*Q* Name the recorded TGI for CC(=O)Nc1ccc(N2C(=O)/C(=C\c3cccc(Oc4ccccc4)c3)SC2c2ccccc2)cc1 (stereo unspecified) .
*A* 56.4

*Q* Which TGI reading was recorded for the compound "O=C1CCc2cc3c(cc21)CC1(Cc2ccccc2C1)C3" ?
*A* 5.18

*Q* Name the reported TGI value associated with the compound N#CC1C(N)=NNC12Nc1ccccc1N2 (stereo unspecified)
*A* 36.8

*Q* Sample "CCOC(=O)c1c(C)n(Cc2ccc(Cl)cc2Cl)c2c1cc1oc(=O)c(=O)n3c(Cc4ccccc4)nc2c13" — what was its TGI?
*A* 2.38

----------
- Test system: LOX IMVI melanoma
- protocol: NCI tumour cell line growth inhibition, 48 h
Recorded TGI values for a group of compounds are listed next.

Before answering, review these 5 worked examples.
COc1cc2cc(Oc3ccc(NC(=O)c4ccc(Cl)c(C(F)(F)F)c4)cc3)c(C)nc2cc1OC    > 100 µM
CN(C)C(=O)C1CCC(=C2C(=O)OC(C)(C)OC2=O)N1C (stereo unspecified)    > 100 µM
CCCCCCCC(=O)N/N=C/c1ccc(Sc2nccn2C)c([N+](=O)[O-])c1    22.6 µM
CSc1c(C(=O)Nc2ccc(Cl)cc2)c(N)[nH]c(=O)c1C#N    > 25.8 µM
CN(C)c1ccc(C(N)=O)cn1    > 100 µM

*Q* # TGI lookup, item COc1cc(/C=C/C2=NN(c3cccc(S(=O)(=O)O)c3)C3(C2)C(Cl)C(=O)N3c2nc3ccccc3s2)ccc1O (stereo unspecified)
*A* 27.5 µM

*Q* Would you kindly share the measured TGI for CC(=O)O[C@]12CCC[C@H]1C1(O)C(O)CCC[C@H]12 (stereo partly specified) ?
*A* > 100 µM

*Q* Look up TGI: "[O-]c1on[n+]2c1c(Nc1ccc(Cl)cc1)nc1ccccc12"
*A* > 100 µM

*Q* Report TGI for "COc1cnc2c(c1)C(=O)c1c-2n(CCCN2CCCC2)c(=O)c2cc(Cl)ccc12" please.
*A* 5.96 µM

*Q* Suppose we examine the compound C/C(=N\NC(N)=O)C(CN(C)C)C(c1ccccc1)c1c(O)c2ccccc2oc1=O (stereo unspecified) ; what TGI value has been reported?
*A* > 100 µM

----------
- Test system: HS 578T breast
- protocol: NCI tumour cell line growth inhibition, 48 h
// reported TGI per item

Oc1cc(Cl)ccc1Oc1ccc(Cl)cc1Cl    42.6 µM

*Q* Recall the recorded TGI for "O=C1CCC[C@H]2O[C@@H](COCc3ccccc3)C[C@@H]12" with HS 578T breast and state it.
*A* > 100 µM

*Q* Give TGI (HS 578T breast) of the following compound: CC(=O)Nc1ccc(N2C(=O)/C(=C\c3cccc(Oc4ccccc4)c3)SC2c2ccccc2)cc1 (stereo unspecified)
*A* 66.3 µM

*Q* Lab note: need TGI for "COc1ccc2c(c1)nc(N)c1c3cccnc3cn21" on HS 578T breast, anyone have it?
*A* > 49.6 µM

----------
- Test system: OVCAR-8 ovarian
- protocol: NCI tumour cell line growth inhibition, 48 h
measured-parameter: TGI

Before answering, review these 5 worked examples.
C/C1=C\CC[C@@](C)(O)[C@@H]2CC3[C@@H](OC(=O)C34CC4)[C@@H](O2)[C@H](C)CCC1 (stereo partly specified)    38.1 µM
CN(C)C(=C1c2cc([N+](=O)[O-])ccc2-c2ccc([N+](=O)[O-])cc21)N(C)C    > 100 µM
COc1ccc(C2NC3=C(CCCC3)C3(C#N)C(=O)N=C(N)C23C#N)cc1 (stereo unspecified)    > 100 µM
C=CCc1ccc(O)c(-c2cc(C3Oc4c(-c5cc(CC=C)ccc5O)cc(O)cc4[C@@H]3CO)ccc2O)c1 (stereo partly specified)    > 100 µM
COc1cc2cc(Oc3ccc(NC(=O)c4ccc(Cl)c(C(F)(F)F)c4)cc3)c(C)nc2cc1OC    > 100 µM

*Q* // lookup TGI for "CN(C)Cc1cc(N=Nc2ccccc2Cl)cc(CN(C)C)c1O"
*A* > 100 µM

*Q* # get_value(readout='TGI', item= "CN(C)c1ccc(C(N)=O)cn1" )
*A* > 100 µM

*Q* Which TGI reading was recorded for the compound COC1CC(n2cnc3c(N)ncnc32)OC1CO (stereo unspecified) ?
*A* > 100 µM

*Q* State the recorded TGI for this entry: COc1ccc(COCC(Cn2ccnc2)OCc2ccc(C(=O)O)cc2)cc1 (stereo unspecified)
*A* > 100 µM

*Q* Consider the compound shown here: "CC(C)N1CSC(=S)N(Cc2ccccc2)C1" What is its recorded TGI?
*A* > 10 µM

*Q* Data request, read-out TGI, for CC(=O)OC1C2(CC3N4C(=O)C5(CO)SSC4(CC31O)C(=O)N5C)OC(C)C(C)(C)C2=O (stereo unspecified)
*A* 0.222 µM

*Q* Value lookup for TGI; key = "NC(N)=NC(N)=Nc1c(F)c(F)c(F)c(F)c1F"
*A* > 100 µM

*Q* Field request: TGI | item: "Cc1c(C)c2ccc(OC/C=C3\CCC(=O)O3)cc2oc1=O"
*A* 34.8 µM

*Q* Requested field: TGI. Item: "CCOC(=O)N1CCN(S(=O)(=O)c2oc(-c3ccc(Cl)cc3)nc2C#N)CC1"
*A* 23.3 µM

*Q* Need TGI of C=C(C)[C@@H]1CC[C@@]2(C)[C@H]1[C@H]1CCC3[C@@]4(C)CC[C@H](O)C(C)(C)[C@@H]4CC[C@@]3(C)[C@]1(C)C[C@@H]2O (stereo partly specified) , thanks.
*A* > 100 µM

*Q* // returns reported TGI for input "CCCCCCCCCCCCC(=O)[O-].CCCCCCCCCCCCC(=O)[O-].CCCCCCCCCCCCC(=O)[O-].CCCCCCCCCCCCC(=O)[O-].[Mo+2].[Mo+2]"
*A* 31.3 µM

*Q* Which TGI value is on record for CCOc1ccc(NC(=O)CC2SC(N)=NC2=O)cc1 (stereo unspecified) ?
*A* > 100 µM

*Q* Item "O=c1oc2ccc(Cl)cc2c(=O)n1-c1ccc(I)cc1F" has what recorded TGI?
*A* 15 µM

*Q* Using the record for "O=C1N[C@@H]([C@H](CCCCCO)OC(=O)c2ccccc2)CO1" , report its TGI.
*A* > 100 µM

*Q* I would be grateful if you could share the reported TGI for O=C(Nc1ccc([N+](=O)[O-])cc1)C(=O)C(C(=O)c1ccccc1F)C1OC(=O)c2ccccc21 (stereo unspecified) .
*A* > 100 µM
